System: CCRF-CEM leukemia
experiment: NCI tumour cell line growth inhibition, 48 h
Each entry below carries its reported TGI.

For "O=C(N/C(=C\c1ccccc1O)c1nc2ccccc2[nH]1)c1ccccc1" the compound record lists TGI as > 100 µM

For CCCCSCC(NC(=O)/C=C/c1c(C)[nH]c(=O)[nH]c1=O)C(=O)OC (stereo not given) the compound record lists TGI as 245 µM

For "Fc1ccc(-c2nn3ccccc3c2-c2ccncc2)cc1" the compound record lists TGI as > 25 µM

For Nc1cccc(OCC2CCCN3CCCCC23)c1 (stereo not given) the compound record lists TGI as 34.4 µM

---

Test system: OVCAR-5 ovarian
experiment: NCI tumour cell line growth inhibition, 48 h
attribute.measured: TGI (µM)
All answers are understood in µM, so give the number only.

{"compound": "Nc1cccc(OCC2CCCN3CCCCC23)c1 (stereo not given)", "TGI [µM]": 35.2}
{"compound": "C=C1C(=O)O[C@H]2[C@H]1CC/C(COC(=O)/C=C\\C(=O)NCc1ccc(Cn3c(=O)sn(CCI)c3=O)cc1)=C\\CC[C@@]1(C)O[C@@H]21", "TGI [µM]": 13.3}
{"compound": "COc1ccc(C2C(C#N)=C(N)Oc3c2sc2c(Br)cccc32)cc1 (stereo not given)", "TGI [µM]": 26.5}

Shifting focus to the compound that follows.
For "O=C(NCCOCCOCCOCCNC(=O)c1cc2c(o1)C(=O)c1ccccc1C2=O)NC12CC3CC(CC(C3)C1)C2" the compound record lists TGI as 3.28
